Tested target: Vibrio alkaline phosphatase (VAP) (Vibrio sp. G15-21)
Sequence (Q93P54 20-521): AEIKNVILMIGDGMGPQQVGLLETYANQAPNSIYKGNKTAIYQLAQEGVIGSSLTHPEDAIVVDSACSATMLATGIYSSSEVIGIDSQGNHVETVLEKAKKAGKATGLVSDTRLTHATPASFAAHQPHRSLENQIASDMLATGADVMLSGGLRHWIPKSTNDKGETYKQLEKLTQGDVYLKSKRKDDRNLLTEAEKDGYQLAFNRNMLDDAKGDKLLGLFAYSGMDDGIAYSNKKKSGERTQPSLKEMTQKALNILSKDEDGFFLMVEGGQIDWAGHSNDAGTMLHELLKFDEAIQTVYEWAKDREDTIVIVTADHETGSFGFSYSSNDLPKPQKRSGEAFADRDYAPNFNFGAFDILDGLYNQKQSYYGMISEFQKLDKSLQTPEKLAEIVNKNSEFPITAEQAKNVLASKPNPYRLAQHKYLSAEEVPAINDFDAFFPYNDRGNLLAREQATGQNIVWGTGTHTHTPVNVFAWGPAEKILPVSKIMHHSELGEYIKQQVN
Metric name: Ki (mM)
Numbers only, in mM.

(Q) Record lookup: for Vibrio alkaline phosphatase (VAP) (Vibrio sp. G15-21), what Ki belongs to `O=S(=O)(O)CCN1CCN(CCO)CC1` ?
(A) 21.3
